Measured composite z-score of individual entries
- MEASUREMENT NOTES: small-molecule microarray binders of probe aLefty2, primary screen, biochemical, biotinylated probe, 635/667 nm fluorescence (AID 1094);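 also: score merges spot fluorescence near 667 nm with spot signal-to-noise ratio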
- CONDITION NOTES: higher = more signal
READOUT TYPE: composite z-score

1. C=CCOC(=O)[C@@H]1[C@H]2C(=O)O[C@H](c3ccccc3)[C@H](c3ccccc3)N2[C@H](c2ccc(OCCOC(=O)[C@H]3C[C@H]4C(=O)N[C@@H](CCCCN(C)C)C(=O)N4[C@H]3c3cccc(OCCO)c3)cc2)[C@@]12C(=O)Nc1ccccc12 :: 0.0897
2. C=CCN1C(=O)[C@@]2(O[C@@H](CCO)[C@H]([Si](C)(C)c3ccc(OC)cc3)[C@H]2C)c2cc(N3CCCCC3=O)ccc21 :: -0.157
3. COC(=O)[C@@]1(Cc2ccc(F)cc2)[C@H]2c3cc(C(=O)N4CCCC4)n(CCSCCO)c3C[C@H]2CN1C(=O)c1ccccc1 :: 0.314
